// cross-study collection: IC50 for Serine/threonine-protein kinase mTOR (Homo sapiens, UniProt P42345)
quantity.kind: IC50 (nM)

compound	quantity.kind	limit.qualifier	meas.value
NC(=O)C1CCCCN1C(=O)c1ccc(NC(=O)Nc2ccc(-c3nc(N4CCOCC4)nc(N4CCOCC4)n3)cc2)cc1 (centres undefined)	IC50	=	3
COc1ncc(-c2cnc3nc(N)nc(C)c3c2)cc1NS(=O)(=O)c1ccc(C(F)(F)F)cc1	IC50	=	67
O=c1cc(N2CCOCC2)nc(Cc2nc3cc(Br)ccc3[nH]2)[nH]1	IC50	>	10000
CNC(=O)Nc1ccc(-c2nc(N3CC4CCC(C3)O4)c3cnn(C)c3n2)cc1	IC50	=	1.34
O=C(NCc1ccc(O)cc1)Nc1cccc(F)c1	IC50	>	30000
COc1ccc2[nH]c(-c3ccccc3)c(/C=C3\Oc4cc(O)cc(O)c4C3=O)c2c1	IC50	=	10
COc1ncc(-c2cc3c(C)nc(N)cc3n(C3CCCC3)c2=O)cc1NS(=O)(=O)c1ccc(C#N)cc1	IC50	=	24.7
COc1ccc(Nc2ncc(N3CCOCC3)cc2-c2nc(C)nc(N)n2)cn1	IC50	>	10000
Nc1nc2cc(-c3nn(CCCC(=O)OCCOCCOc4no[n+]([O-])c4S(=O)(=O)c4ccccc4)c4ncnc(N)c34)ccc2o1	IC50	=	7.02
